# credit: PubChem BioAssay (NCI)

Give measured TGI for each item. Keep answers brief.
system: OVCAR-5 ovarian; test: NCI tumour cell line growth inhibition, 48 h

Suppose we examine the molecule FC(F)(Sc1ccccn1)c1nc2ccccc2o1 ; what TGI value has been reported?
> 100 µM

Same again, this time with O=C1NC(O)C(c2c[nH]c3ccccc23)=C1c1c[nH]c2ccccc12 (centres undefined)
> 25 µM

Same again, this time with N#CN=C(N)NC(=O)/C=C/C=C/c1ccc(Cl)cc1
> 100 µM

Same again, this time with CC(C)(C)c1cc(-c2cc(C(C)(C)C)n(-c3ccccc3)n2)nn1-c1ccccc1
> 100 µM

Same again, this time with O=NNc1ccc(S(=O)(=O)c2ccccc2)cn1
> 100 µM

Same again, this time with CC(C)=NN/C(=N\S(=O)(=O)c1ccc(C)cc1)Nc1ccc(Cl)cc1
> 100 µM

Same again, this time with Nc1nc(N)c(C2=CCNCC2)c(=O)[nH]1
> 100 µM

Same again, this time with CC(=O)N1OC(C)CC1Nc1ccc(Br)cc1 (centres undefined)
> 100 µM

Same again, this time with CC(C)(C)OC(=O)c1cnc(Cl)cn1
> 100 µM

Same again, this time with COc1ccc2nc3ccc(OC)cc3c(SCc3ccc([N+](=O)[O-])cc3)c2c1
> 100 µM

Same again, this time with Cc1ccc(C)n1-n1c(Cc2ccccc2)n[nH]c1=O
> 100 µM

Same again, this time with Cc1cc2nc3c4cc(N)ccc4n(CCN(C)C)c3nc2cc1C
9.66 µM

Same again, this time with Cc1ccccc1N=Nc1ccc(NC(=O)c2ccnn2C)c(C)c1
> 100 µM

Same again, this time with C=CC[N+]12CN3CN(CN(C3)C1)C2
95.5 µM

Same again, this time with c1ccc(N=C(Nc2ccccc2)N2CCCCC2)cc1
> 100 µM

Same again, this time with Nc1nc(N)c2c(n1)NC(=O)c1c(c3ccccc3n1Cc1ccc(Cl)cc1)C2
> 100 µM

Same again, this time with CC(C)(O)CS(=O)(=O)Nc1ccc2c(c1)CCN(C(=O)COc1cccnc1)C2
> 100 µM

Same again, this time with NC(=O)C(N)=O
> 100 µM

Same again, this time with O=C(CC1(O)C(=O)Nc2c(Cl)ccc(Cl)c21)c1ccc2ccccc2c1 (centres undefined)
39.5 µM

Same again, this time with Nc1nc(N)c(NC(=O)CCCO)c(=O)[nH]1
> 100 µM

Same again, this time with C#CCC(Cc1cnc2nc(N)nc(N)c2n1)c1ccc(C(=O)N[C@@H](CCC(=O)O)C(=O)O)cc1 (some centres undefined)
> 100 µM

Same again, this time with C/C(=N/Nc1nc2ccccc2n1C)c1ccccn1
39.7 µM

Same again, this time with O=C1C=C(Sc2ccccc2)c2nccc3c2c1nc1ccccc13
> 100 µM

Same again, this time with O=C1CC(O)c2c(Br)sc(Br)c21 (centres undefined)
38.6 µM
